Test system: Lipid bilayer
Test: Binding affinity to EYPE/EYPG small unilamellar vesicles assessed as intrinsic tryptophan acrylamide quenching constant by fluorescence assay (reference value: 5.95 to 7.56 /M)
Overview of recorded KSV for various compounds
Hi! Could you send only the number? It should be in M⁻¹, unit omitted.

smiles-text: CC[C@H](C)[C@H](NC(=O)[C@H](CC(C)C)NC(=O)[C@@H](CCCCN)NC(=O)[C@@H](NC(=O)[C@@H](NC(=O)[C@H](CCCNC(=N)N)NC(=O)[C@@H](N)CCCCN)[C@@H](C)CC)C(C)C)C(=O)N[C@@H](CC(C)C)C(=O)N[C@@H](CCCCN)C(=O)N[C@@H](Cc1c[nH]c2ccccc12)C(=O)N[C@@H](CC(C)C)C(=O)N[C@@H](CCCNC(=N)N)C(N)=O
KSV [M⁻¹]: 1.02

# input Kindly state the measured KSV obtained for CC[C@H](C)[C@H](NC(=O)[C@H](CC(C)C)NC(=O)[C@H](CCCCN)NC(=O)[C@@H](NC(=O)[C@@H](NC(=O)[C@H](CCCNC(=N)N)NC(=O)[C@@H](N)CCCCN)[C@@H](C)CC)C(C)C)C(=O)N[C@@H](CC(C)C)C(=O)N[C@@H](CCCCN)C(=O)N[C@@H](Cc1c[nH]c2ccccc12)C(=O)N[C@@H](CC(C)C)C(=O)N[C@@H](CCCNC(=N)N)C(N)=O with Lipid bilayer.
# output 1.12

# input Then CC[C@H](C)[C@H](NC(=O)[C@H](CCCNC(=N)N)NC(=O)[C@@H](N)CCCCN)C(=O)N[C@H](C(=O)N[C@@H](CCCCN)C(=O)N[C@H](CC(C)C)C(=O)N[C@H](C(=O)N[C@@H](CC(C)C)C(=O)N[C@@H](CCCCN)C(=O)N[C@@H](Cc1c[nH]c2ccccc12)C(=O)N[C@@H](CC(C)C)C(=O)N[C@@H](CCCNC(=N)N)C(N)=O)[C@@H](C)CC)C(C)C ?
# output 0.97

# input Then CC[C@H](C)[C@H](NC(=O)[C@H](CCCNC(=N)N)NC(=O)[C@@H](N)CCCCN)C(=O)N[C@H](C(=O)N[C@@H](CCCCN)C(=O)N[C@@H](CC(C)C)C(=O)N[C@H](CC(C)C)C(=O)N[C@@H](CC(C)C)C(=O)N[C@@H](CCCCN)C(=O)N[C@@H](Cc1c[nH]c2ccccc12)C(=O)N[C@@H](CC(C)C)C(=O)N[C@@H](CCCNC(=N)N)C(N)=O)C(C)C ?
# output 1.01
